// data source = ChEMBL document CHEMBL1201862

tested on: PC-3; test: NCI tumour cell line growth inhibition, 48 h
Activity calls are given as the source filed them. Rule as the data show it: active = GI50 up to about 1.1 µM and inactive = higher.
Entry note: the call must match one of Yes (active), No (inactive)

Input line: I'd appreciate the recorded outcome for CCOP(=O)(OCC)C(Cc1ccc(OC)c(OC)c1)N=C(c1ccccc1)c1ccccc1 (stereo not given) from this test.
Output line: No

Input line: I'd appreciate the recorded outcome for COC1C(C)OC(OC2CC(C)(O)Cc3cc4c(c(O)c32)C(=O)c2c(O)cc3c(c2C4=O)OC2OC3(C)C(O)C(N(C)C)C2O)C(OC)C1(C)OC (stereo not given) from this test.
Output line: Yes

Input line: I'd appreciate the recorded outcome for O=[N+]([O-])c1cc(Cl)ccc1Sc1ccccc1 from this test.
Output line: No

Input line: I'd appreciate the recorded outcome for N#CSC#CCCC#CSC#N from this test.
Output line: No

Input line: I'd appreciate the recorded outcome for Cc1cc(Cl)ccc1Nc1nc2c(s1)C(=O)c1ccccc1C2=O from this test.
Output line: No

###

test system: SN12C; test: NCI tumour cell line growth inhibition, 48 h
Calls of active or inactive are those of the source. No stated cut-off is given here; in the data, active = GI50 up to about 1.1 µM and inactive = higher.
Entry note: the call must match one of active, inactive

Input line: I'd appreciate the recorded outcome for NC(CSc1nc2ccccn2c1[N+](=O)[O-])C(=O)O (stereo not drawn) from this test.
Output line: inactive

Input line: I'd appreciate the recorded outcome for Cc1ccc2[nH]c3c(c2c1)C1CCC(C(C)(C)C)CC1C1C(=O)N(c2ccc4c(c2)OCO4)C(=O)C31 (stereo not drawn) from this test.
Output line: inactive

Input line: I'd appreciate the recorded outcome for COC(=O)/C=C1/CCC2[C@@H](C(=O)CC3[C@]2(C)CCC[C@@]3(C)C(=O)OC)C1C (stereo partly drawn) from this test.
Output line: inactive

Input line: I'd appreciate the recorded outcome for O=C(O)c1c2c(cc3c1CC1(Cc4ccccc4C1=O)C3)CCC2 (stereo not drawn) from this test.
Output line: inactive

Input line: I'd appreciate the recorded outcome for CC1CC(C)C2OC2(C)C[C@H](C)C(=O)NC(C)C(=O)N(C)[C@H](Cc2c(Br)[nH]c3ccccc23)C(=O)N[C@@H](c2ccc(O)cc2)CC(=O)O1 (stereo partly drawn) from this test.
Output line: active

Input line: I'd appreciate the recorded outcome for O=C(N/C(=C\c1cccc([N+](=O)[O-])c1)c1nc2cc([N+](=O)[O-])ccc2[nH]1)c1ccccc1 from this test.
Output line: inactive

Input line: I'd appreciate the recorded outcome for COC12OC3CC4(C)C(=CC3OC(OC(C)C1O)C2O)CCC1C4CCC2(C)C(c3ccc(=O)oc3)CCC12O (stereo not drawn) from this test.
Output line: active

Input line: I'd appreciate the recorded outcome for OCC1OC(OCC(O)C(O)C(O)C(/C=N/Nc2ccccc2)=N/Nc2ccccc2)C(O)C(O)C1O (stereo not drawn) from this test.
Output line: inactive

Input line: I'd appreciate the recorded outcome for O=[N+]([O-])c1ccc2c(c1)C(N1CCN(CCO)CC1)Cc1ccc(F)cc1S2 (stereo not drawn) from this test.
Output line: inactive

Input line: I'd appreciate the recorded outcome for CCN(CC)S(=O)(=O)c1ccc2[nH]c(NC(=O)OC)nc2c1 from this test.
Output line: inactive

Input line: I'd appreciate the recorded outcome for C=CCc1cc(-c2n[nH]c(=S)[nH]2)ccc1N/N=N/c1ccc(C(=O)O)cc1 from this test.
Output line: inactive

Input line: I'd appreciate the recorded outcome for C=CCn1cc(C(=O)NC(=O)NCCCCCOC(=O)CCCCCCCCCCC(=O)OCCCCCNC(=O)NC(=O)c2cn(CC=C)c(=O)n(C)c2=O)c(=O)n(C)c1=O from this test.
Output line: inactive

Input line: I'd appreciate the recorded outcome for COc1ccc(-c2c3c(n(C4OC(COC(C)=O)C(OC(C)=O)C(OC(C)=O)C4OC(C)=O)c(=S)c2C#N)CCC3)cc1 (stereo not drawn) from this test.
Output line: inactive

Input line: I'd appreciate the recorded outcome for O=S1(=O)C(c2ccccc2)C(N2CCCCC2)C1C1CC2c3ccccc3C1c1ccccc12 (stereo not drawn) from this test.
Output line: inactive

Input line: I'd appreciate the recorded outcome for CS(=O)(=O)N(CCC#N)c1ccc(C=O)cc1 from this test.
Output line: inactive

Input line: I'd appreciate the recorded outcome for COc1ccc(/C=C\c2cc(OC)c(OC)c(OC)c2)cc1OCC(=O)O from this test.
Output line: inactive

Input line: I'd appreciate the recorded outcome for CCOC(=O)CCC(NC(=O)c1ccc(Nc2nc3cc(C(F)(F)F)ccc3nc2C(=O)OCC)cc1)C(=O)OCC (stereo not drawn) from this test.
Output line: inactive

Input line: I'd appreciate the recorded outcome for COc1ccc(S(=O)(=O)Nc2ccc(-c3csc(N4C(=O)/C(=C/c5ccccc5[N+](=O)[O-])N=C4c4ccccc4)n3)cc2)cc1Cl from this test.
Output line: inactive

Input line: I'd appreciate the recorded outcome for Clc1cccc(C2ON=C(c3ccccc3)N2C23CC4CC(CC(C4)C2)C3)c1Cl (stereo not drawn) from this test.
Output line: inactive

Input line: I'd appreciate the recorded outcome for Oc1cc(O)c2c(c1)O[C@H](c1cc(O)c(O)c(O)c1)[C@@H](O)C2 from this test.
Output line: inactive

Input line: I'd appreciate the recorded outcome for CN(C)c1cccc2c(S(=O)(=O)NCCCNCCN)cccc12 from this test.
Output line: inactive

Input line: I'd appreciate the recorded outcome for CCOC(=O)c1ccc(NCc2ccc3oc(=O)c(-c4ccccc4)nc3c2)cc1 from this test.
Output line: inactive

Input line: I'd appreciate the recorded outcome for COc1ccc(-c2c(-c3ccccc3)c(C)nc3nc(SC)nc(SC)c23)cc1OC from this test.
Output line: inactive

Input line: I'd appreciate the recorded outcome for Cn1cnc(S[C@H]2[C@H]3C(=O)C=C4S[C@H]5C[C@]42C2=C(N5)C(=O)c4[nH]cc5c4C2=[N+]3CC5)c1C[C@H](N)C(=O)O from this test.
Output line: inactive

Input line: I'd appreciate the recorded outcome for O=C1Cc2c([nH]c3ccc(Br)cc23)-c2ccccc2N1 from this test.
Output line: inactive

Input line: I'd appreciate the recorded outcome for O=C1C(NCCN2CCOCC2)=C(Cl)C(=O)c2ncccc21 from this test.
Output line: inactive

Input line: I'd appreciate the recorded outcome for CCc1nc2ccccc2c(=O)n1/N=C(\N=N\c1ccc(Cl)cc1)c1ccccc1 from this test.
Output line: inactive

Input line: I'd appreciate the recorded outcome for CC(C)CCC[C@@H](C)[C@H]1CC[C@H]2[C@@H]3CC[C@H]4C[C@H](N)CC[C@]4(C)[C@H]3CC[C@]12C from this test.
Output line: inactive

###

system: NCI-H522; assay: NCI tumour cell line growth inhibition, 48 h
Calls of active or inactive are those of the source. Rule as the data show it: active = GI50 up to about 1.1 µM and inactive = higher.
Entry note: the call must match one of label 1 for active, label 0 for inactive

Input line: I'd appreciate the recorded outcome for Cc1cc(C)c(S(=O)(=O)N[C@@H](/C=C(\Br)CO)C(C)C)c(C)c1 from this test.
Output line: label 0

Input line: I'd appreciate the recorded outcome for Cc1ccc(S(=O)(=O)C2=Cc3ccc(C(F)(F)F)cc3C2(O)c2cccc(C(F)(F)F)c2)cc1 (stereo unspecified) from this test.
Output line: label 0

Input line: I'd appreciate the recorded outcome for O=C1CCCC1C(=O)Nc1ccc2ccccc2c1 (stereo unspecified) from this test.
Output line: label 0

Input line: I'd appreciate the recorded outcome for CCc1nc2ccccc2c(=O)n1/N=C(\N=N\c1ccc(Cl)cc1)c1ccccc1 from this test.
Output line: label 0

Input line: I'd appreciate the recorded outcome for CCN(CC)CCNc1ccc([N+](=O)[O-])c2nc3ccc(OC)cc3c(N)c12 from this test.
Output line: label 1

Input line: I'd appreciate the recorded outcome for O=C(O)c1ccc(Nc2cnc3cc(C(F)(F)F)ccc3n2)cc1 from this test.
Output line: label 0

Input line: I'd appreciate the recorded outcome for COc1cc(-c2ccc(/N=N/c3c(S(=O)(=O)O)cc4cc(S(=O)(=O)O)cc(N)c4c3O)c(OC)c2)ccc1/N=N/c1c(S(=O)(=O)O)cc2cc(S(=O)(=O)O)cc(N)c2c1O from this test.
Output line: label 0

Input line: I'd appreciate the recorded outcome for Cc1ccc(C(=O)Nc2ccc(S(=O)(=O)O)c3cc(S(=O)(=O)O)cc(S(=O)(=O)O)c23)cc1NC(=O)c1cccc(NC(=O)Nc2cccc(C(=O)Nc3cc(C(=O)Nc4ccc(S(=O)(=O)O)c5cc(S(=O)(=O)O)cc(S(=O)(=O)O)c45)ccc3C)c2)c1 from this test.
Output line: label 0

Input line: I'd appreciate the recorded outcome for O=S(=O)(N/C(=N\O)Nc1ccc(Cl)cc1)c1ccccc1 from this test.
Output line: label 1

Input line: I'd appreciate the recorded outcome for CC(=O)OC1COC(n2c(=S)n(-c3ccccc3)c(=O)c3ccccc32)C(OC(C)=O)C1OC(C)=O (stereo unspecified) from this test.
Output line: label 0

Input line: I'd appreciate the recorded outcome for O=c1[nH]c(=S)c2cc3c(=S)[nH]c(=O)n(CCC(c4ccccc4)(c4ccccc4)c4ccccc4)c3nc2n1CCC(c1ccccc1)(c1ccccc1)c1ccccc1 from this test.
Output line: label 0
